target: NaV1.1 (Homo sapiens (Human)); assay: Sodium Influx Assay (Flux), NaV1.1; type: cell-based; details: Trex HEK293 cells, ANG2 dye; arithmetic mean
Counter-ions that a name gives are not always drawn.
Measure: IC50 (µM)
Your answer should be a plain number; it is taken to be in µM.

Example cases with answers are listed next.
compound="C[C@]1(Nc2ccc(S(=O)(=O)Nc3cscn3)cc2Cl)CCN(Cc2ccccc2)C1 [Example 226, formate]" recorded_result=11.5
compound="O=S(=O)(Nc1nccs1)c1ccc(OC2CCN(Cc3ccccc3C(F)(F)F)CC2)c(Cl)c1 [Example 12]" recorded_result=13.3
compound="CN(c1cc(F)c(S(=O)(=O)Nc2cscn2)cc1Cl)[C@H]1CCN(Cc2ccccc2F)C1 [Example 218]" recorded_result=13.7
compound="CN(c1cc(F)c(S(=O)(=O)Nc2cscn2)cc1Br)[C@H]1CCN(Cc2ccccc2)C1 [Example 230, 2,2,2-trifluoroacetate]" recorded_result=13.1
compound="O=S(=O)(Nc1cscn1)c1ccc(O[C@@H]2C[C@H]3CC[C@@H](C2)N3Cc2ccccc2)c(Cl)c1 [Example 318]" recorded_result=13.8
compound="CN(c1cc(F)c(S(=O)(=O)Nc2cscn2)cc1Cl)[C@H]1CCN(C2(c3ccccc3F)CCC2)C1 [Example 244, formate]" recorded_result=6.94

Now, please, on to the next compound.
*Q* Report IC50 for Cc1cccc(CN2CCC(Oc3ccc(S(=O)(=O)Nc4nccs4)cc3Cl)CC2)c1 [Example 92] tested on NaV1.1 (Homo sapiens (Human)).
*A* 6.4
